# maps each entry to its self-splicing fitness (ln)
Experiment: self-splicing fitness, log relative to wild type (ln ratio); higher = more splicing; Tetrahymena group I intron in knt gene, E. coli kanamycin selection, DiMSum; sequences stand for … in CUCUCU…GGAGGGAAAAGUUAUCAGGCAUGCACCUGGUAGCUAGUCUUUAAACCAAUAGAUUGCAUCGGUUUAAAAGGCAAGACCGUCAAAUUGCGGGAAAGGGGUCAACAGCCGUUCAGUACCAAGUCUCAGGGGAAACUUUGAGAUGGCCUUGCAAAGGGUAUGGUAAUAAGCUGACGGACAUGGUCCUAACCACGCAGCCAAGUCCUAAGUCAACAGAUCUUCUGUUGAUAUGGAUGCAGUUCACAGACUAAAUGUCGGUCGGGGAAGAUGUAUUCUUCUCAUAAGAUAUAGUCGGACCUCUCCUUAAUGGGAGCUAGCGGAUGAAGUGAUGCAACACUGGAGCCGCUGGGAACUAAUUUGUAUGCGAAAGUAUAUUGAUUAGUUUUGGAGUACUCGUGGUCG;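 further: selection with 25 µg/mL kanamycin versus none on LB agar overnight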
Conditions: 30 °C
// return just the number, without any unit appended

GGAAAGCAAUAUUACGUUGG    -3.55
GUGGAGCAAUAUUACGCUGG    -3.52

Consider the sequence `CACGAGCAAUAUUACGGAUG` . State its measured self-splicing fitness (ln).
-3.35

Consider the sequence `GGUGAGCAAUAUUACGCUAC` . State its measured self-splicing fitness (ln).
-2.34

Consider the sequence `UUGUAGCAAUAUUACGUACC` . State its measured self-splicing fitness (ln).
-2.08

Consider the sequence `CGGAAGCAAUAUUACGCCGC` . State its measured self-splicing fitness (ln).
-2.96

Consider the sequence `GAGAAGCAAUAUUACGUUUU` . State its measured self-splicing fitness (ln).
-2.39

Consider the sequence `UUCAAGCAAUAUUACGUAAA` . State its measured self-splicing fitness (ln).
-0.739

###

Assay: self-splicing fitness, log relative to wild type (ln ratio); higher = more splicing; Tetrahymena group I intron in knt gene, E. coli kanamycin selection, DiMSum; sequences stand for … in CUCUCU…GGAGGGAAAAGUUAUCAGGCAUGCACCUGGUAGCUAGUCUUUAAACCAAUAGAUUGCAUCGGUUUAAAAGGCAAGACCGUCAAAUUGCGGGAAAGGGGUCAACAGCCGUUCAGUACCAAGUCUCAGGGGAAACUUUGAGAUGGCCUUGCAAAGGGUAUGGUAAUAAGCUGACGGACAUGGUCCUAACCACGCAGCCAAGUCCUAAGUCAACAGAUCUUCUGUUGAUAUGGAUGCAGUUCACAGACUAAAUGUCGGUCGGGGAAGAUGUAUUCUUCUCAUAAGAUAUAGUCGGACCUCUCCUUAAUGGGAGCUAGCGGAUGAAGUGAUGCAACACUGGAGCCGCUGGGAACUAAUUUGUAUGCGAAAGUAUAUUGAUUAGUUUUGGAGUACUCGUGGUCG
Details: 30 °C
# maps each entry to its self-splicing fitness (ln)

Sample answers from the record:
CCUCAGCAAUAUUACGCUUU    -3.07
CCCGAGCAAUAUUACGGUAA    -3.81
UUAUAGCAAUAUUACGGCGA    -1.38

Consider the sequence `UGGAAGCAAUAUUACGAGAG` . State its measured self-splicing fitness (ln).
-3.79

Consider the sequence `GACUAGCAAUAUUACGUUCU` . State its measured self-splicing fitness (ln).
-3.33

Consider the sequence `AGCAAGCAAUAUUACGCGGA` . State its measured self-splicing fitness (ln).
-2.04

Consider the sequence `UUCCAGCAAUAUUACGAAAA` . State its measured self-splicing fitness (ln).
-0.987
